Tested on: UACC-62 melanoma
Assay: NCI-60 one-dose screen, 48 h (100 = growth as untreated, 0 = no growth, -100 = all killed)
Conditions: 10 µM unless noted
Compounds without any hit were thinned out: in the full panel of roughly 83,000, 20% have a hit.
MEASURED QUANTITY: growth (%)

[[record]]
compound = "CC(=O)c1ccc(NC(=O)COc2ccc(C3SCC(=O)N3c3ccc(Br)cc3)cc2)cc1 (centres undefined)"
measured_quantity = "growth"
unit_of_measurement = "%"
numeric_value = 79.5

[[record]]
compound = "CNC(=O)c1cc(N2CCc3cc(NC(=O)Nc4ccc(Cl)c(Cl)c4)ccc32)ccn1"
measured_quantity = "growth"
unit_of_measurement = "%"
numeric_value = 78.9

[[record]]
compound = "CCNC(=O)Oc1ccc(/C(=C(/C)c2ccc(Cl)cc2)c2ccc(OCCN3CCCC3)cc2)cc1"
measured_quantity = "growth"
unit_of_measurement = "%"
numeric_value = 98.3

[[record]]
compound = "O=C1CC2(CCOCC2)Oc2ncccc21"
measured_quantity = "growth"
unit_of_measurement = "%"
numeric_value = 61.1

[[record]]
compound = "NS(=O)(=O)c1ccc(Nc2nc(N/N=C/c3ccc([N+](=O)[O-])cc3)nc(Nc3ccccc3)n2)cc1"
measured_quantity = "growth"
unit_of_measurement = "%"
numeric_value = 45.1

[[record]]
compound = "COc1ccc(N)cc1C(=O)Nc1cccc(-c2cc(=O)c3c(OC)c(OC)c(OC)cc3o2)c1"
measured_quantity = "growth"
unit_of_measurement = "%"
numeric_value = 61.2

[[record]]
compound = "CCCCCCNC(=O)Oc1ccc(/C(=C(\\C)c2ccc(OC)cc2)c2ccc(OCCN(C)C)cc2)cc1"
measured_quantity = "growth"
unit_of_measurement = "%"
numeric_value = 89.4

[[record]]
compound = "CCNC(=O)Oc1ccc(/C(=C(/C)c2ccccc2)c2ccc(OCCN3CCCC3)cc2)cc1"
measured_quantity = "growth"
unit_of_measurement = "%"
numeric_value = 83.4

[[record]]
compound = "Cn1nc(Nc2ccccc2)c(C(=O)NN)c1N"
measured_quantity = "growth"
unit_of_measurement = "%"
numeric_value = 96.8

[[record]]
compound = "COc1ccc(N2CCN(C(=O)CSc3ccc(-c4nc5cc(C)c(C)cc5[nH]4)cn3)CC2)cc1"
measured_quantity = "growth"
unit_of_measurement = "%"
numeric_value = 45.3

[[record]]
compound = "Cc1cc(-c2ccc3nc(N)sc3c2)nc2ccc3[nH]ncc3c12"
measured_quantity = "growth"
unit_of_measurement = "%"
numeric_value = 21.9

[[record]]
compound = "O=C(Nc1cccc(-c2nc(-c3ccc(NC(=O)c4cccs4)cc3Cl)no2)c1)Nc1ccc(NC(=O)C2CC2)c(C(F)(F)F)c1"
measured_quantity = "growth"
unit_of_measurement = "%"
numeric_value = -73.8

[[record]]
compound = "Clc1ccc(-c2csc(N/N=C/c3nc4ccccc4n3C3CC3)n2)cc1"
measured_quantity = "growth"
unit_of_measurement = "%"
numeric_value = 98.4

[[record]]
compound = "CCOc1c(C#N)c(Nc2ccc(S(N)(=O)=O)cc2)c(C#N)c2nnc(C)n12"
measured_quantity = "growth"
unit_of_measurement = "%"
numeric_value = 91.8

[[record]]
compound = "Oc1ccc(-c2nnc(SCc3ccc(O)c4ncccc34)n2-c2ccccc2)cc1"
measured_quantity = "growth"
unit_of_measurement = "%"
numeric_value = -4.05

[[record]]
compound = "COc1ccc(S(=O)(=O)n2cc(C=O)c3ccccc32)c(OC)c1"
measured_quantity = "growth"
unit_of_measurement = "%"
numeric_value = 63.1

[[record]]
compound = "C=CCn1c(SCC(=O)Nc2cccc(C(=O)/C=C/c3ccccc3)c2)nc2ccccc2c1=O"
measured_quantity = "growth"
unit_of_measurement = "%"
numeric_value = 86.3

[[record]]
compound = "Nc1nc(N)c2c(n1)NC(c1ccc(Cl)cc1)CC(c1ccc(Nc3nc(NCCO)nc(Nc4ccc(Cl)cc4)n3)cc1)=N2 (centres undefined)"
measured_quantity = "growth"
unit_of_measurement = "%"
numeric_value = 91.2

[[record]]
compound = "C=CCn1c(SCC(=O)Nc2cccc(C(=O)/C=C/c3ccc(Br)cc3)c2)nc2ccccc2c1=O"
measured_quantity = "growth"
unit_of_measurement = "%"
numeric_value = 73.4


---

Tested on: SNB-75 CNS
Experiment: NCI-60 one-dose screen, 48 h (100 = growth as untreated, 0 = no growth, -100 = all killed)
Details: 10 µM unless noted
Experimental: Growth inhibition of the SNB-75 human tumor cell line is measured as a screen for anti-cancer activity. Cells are grown in 96 well plates and exposed to the test compound for 48 hours. Compounds are tested at a single concentration, which is 10^-5 M for most compounds. The reported endpoint is percent growth (GI% or GIPRCNT), where numbers from 0 - 100% represent growth inhibition, and numbers from -100% - 0 represent cell death. For example, a value of 40 represents 60% growth inhibition. […]
Compounds without any hit were thinned out: in the full panel of roughly 83,000, 20% have a hit.
Would you please tag the item Fulfilled when its growth is 80% or above, and Not fulfilled when it is below?

[[record]]
compound = "CCNC(=O)Oc1ccc(/C(=C(/C)c2ccc(Cl)cc2)c2ccc(OCCN(C)C)cc2)cc1"
assigned_label = "Not fulfilled"

[[record]]
compound = "Cc1cn(-c2cc(NC(=O)c3cncc(C#Cc4cnc5ccc(O[C@@H]6CCOC6)nn45)c3)cc(C(F)(F)F)c2)cn1"
assigned_label = "Not fulfilled"

[[record]]
compound = "COc1cc(C(=O)C[n+]2ccc3ccccc3c2)cc(OC)c1OC"
assigned_label = "Fulfilled"

[[record]]
compound = "COc1cc(CNC(=O)/C=C/c2ccccc2)ccc1OCC(=O)NO"
assigned_label = "Fulfilled"

[[record]]
compound = "Nc1cc(F)ccc1NC(=O)c1ccc(NC(=O)C/C=C/c2cccnc2)cn1"
assigned_label = "Not fulfilled"

[[record]]
compound = "CCN1C(=O)N(CC)C2SC(N/N=C/c3ccccc3F)=NC21 (stereo not drawn)"
assigned_label = "Not fulfilled"

[[record]]
compound = "Cc1ccccc1/C=C/c1nn2c(-c3ccoc3C)nnc2s1"
assigned_label = "Fulfilled"


---

Tested on: COLO 205 colon
Experiment: NCI-60 one-dose screen, 48 h
Settings: 10 µM unless noted
About 83,000 compounds went through this panel and 20% of them were active in at least one assay; those are over-represented in the sample as a whole. Calls of active or inactive are those of the source. The calls were made as follows: active = growth percent below 10; inactive = the rest.
Outcome codes: active, inactive

[[record]]
compound = "COc1ccc(/C=N/Nc2nc(N/N=C/c3ccc(OC)cc3O)nc(N3CCOCC3)n2)c(O)c1"
system_tested = "COLO 205 colon"
assigned_label = "inactive"

[[record]]
compound = "Cn1c(SC(C(=O)Nc2ccc(F)cc2)c2ccccc2)nc2ccccc2c1=O (centres undefined)"
system_tested = "COLO 205 colon"
assigned_label = "inactive"

[[record]]
compound = "O=C(Nc1cccc(-c2nc(-c3ccc(NC(=O)c4cccnc4)cc3Cl)no2)c1)Nc1ccc(NC(=O)C2CC2)c(C(F)(F)F)c1"
system_tested = "COLO 205 colon"
assigned_label = "active"

[[record]]
compound = "CSc1ccc(/C(=N/N=C(N)N)c2ccccc2)cc1"
system_tested = "COLO 205 colon"
assigned_label = "active"

[[record]]
compound = "CNC(=O)c1cc(Oc2ccc3nc(NC(=O)c4ccc(CN5CCN(C)CC5)c(C(F)(F)F)c4)sc3c2)ccn1"
system_tested = "COLO 205 colon"
assigned_label = "active"

[[record]]
compound = "CCOC(=O)c1c(Nc2ccccc2)nn2c(-c3ccc(Br)cc3)ccnc12"
system_tested = "COLO 205 colon"
assigned_label = "inactive"

[[record]]
compound = "COc1ccc(-c2nc3cc(Cl)c(Cl)cc3n2CC(=O)N=Nc2c(O)[nH]c3ccc(Cl)cc23)cc1"
system_tested = "COLO 205 colon"
assigned_label = "active"

[[record]]
compound = "COc1cccc(/C=C/C(=O)c2ccc(NC(=O)COc3cccc4cccnc34)cc2)c1"
system_tested = "COLO 205 colon"
assigned_label = "inactive"

[[record]]
compound = "Cc1cc(Cl)cc(NS(=O)(=O)c2ccc(-c3cnc(C4CC4)o3)cc2)c1"
system_tested = "COLO 205 colon"
assigned_label = "active"


---

Test system: SNB-19 CNS
Experiment: NCI-60 one-dose screen, 48 h (100 = growth as untreated, 0 = no growth, -100 = all killed)
Details: 10 µM unless noted
About 83,000 compounds went through this panel and 20% of them were active in at least one assay; those are over-represented in the sample as a whole.
Sorting guide: entries reporting growth beneath 80% go in the condition met pile, the rest go in the condition not met pile.

[[record]]
compound = "CCC(C)[C@H]1OC(=O)[C@H](C(C)C)N(C)C(=O)[C@@H](C(C)C)OC(=O)[C@H](C(C)C)N(C)C(=O)[C@@H](C(C)CC)OC(=O)[C@H](C(C)C)N(C)C1=O (some centres undefined)"
assigned_label = "condition met"

[[record]]
compound = "Cc1nn(-c2ccc(Br)cc2)c2nc(CCl)[nH]c(=O)c12"
assigned_label = "condition not met"

[[record]]
compound = "CC(C)C[C@H]1C(=O)O[C@H](C(C)C)C(=O)N(C)[C@@H](C(C)C)C(=O)O[C@H](C(C)C)C(=O)N(C)[C@@H](C(C)C)C(=O)O[C@H](C(C)C)C(=O)N1C"
assigned_label = "condition met"

[[record]]
compound = "CCOC(=O)c1c(NC(=O)c2cccc(C(F)(F)F)c2)sc2c(CN3CCN(C)CC3)c(O)ccc12"
assigned_label = "condition met"

[[record]]
compound = "CCOC(=O)c1nn(-c2ccccc2)c(=O)c2c(N)c(C#N)c(-c3cccs3)cc12"
assigned_label = "condition met"

[[record]]
compound = "O=C(Nc1cc(Cl)cc(Cl)c1)Nc1nc2ccc([N+](=O)[O-])cc2s1"
assigned_label = "condition met"

[[record]]
compound = "COc1ccc(N2CCN(C(=O)CSc3ccc(-c4nc5cc(C)c(C)cc5[nH]4)cn3)CC2)cc1"
assigned_label = "condition not met"

[[record]]
compound = "Oc1ccccc1-c1nnc(SCc2ccc(O)c3ncccc23)o1"
assigned_label = "condition met"

[[record]]
compound = "O=C(NNc1nc2cc(F)c(F)cc2n2cccc12)c1cccnn1"
assigned_label = "condition met"

[[record]]
compound = "C/C(=N\\NC(=S)Nc1ccc(Br)cc1)c1cc2ccccc2oc1=O"
assigned_label = "condition met"

[[record]]
compound = "C(=C(\\C1=NCCN1)n1cnc2ccccc21)/c1cccc2ccccc12"
assigned_label = "condition not met"

[[record]]
compound = "O=C(Cn1cc(CN2C(=O)c3ccc([N+](=O)[O-])cc3C2=O)nn1)Nc1ccc(F)cc1Cl"
assigned_label = "condition not met"

[[record]]
compound = "COc1ccc(/C(C)=C(\\c2ccc(Cl)cc2)c2ccc(OCCN)cc2)cc1"
assigned_label = "condition not met"

[[record]]
compound = "N#Cc1ccc(S(=O)(=O)Nc2ccc(-c3cnc(N)[nH]3)cc2)cc1"
assigned_label = "condition not met"

[[record]]
compound = "CCN1C(=O)N(CC)C2C1NN=C1SC(c3ccccc3)=CC(=O)N12 (centres undefined)"
assigned_label = "condition met"

[[record]]
compound = "O=C(CCCCCCN1CC(=O)N2[C@@H](c3cccc(Cl)c3)c3[nH]c4ccccc4c3C[C@H]2C1=O)NO"
assigned_label = "condition met"

[[record]]
compound = "COc1ccc(S(=O)(=O)n2cc(C=O)c3ccccc32)c(OC)c1"
assigned_label = "condition not met"

[[record]]
compound = "O=C1c2cc(Br)ccc2-n2c1nc1cc(Br)ccc1c2=O"
assigned_label = "condition not met"

[[record]]
compound = "N/C(=N\\OC(=O)CSc1nc2ccccc2s1)c1ccc2ccccc2c1"
assigned_label = "condition not met"


Measured values drawn from PubChem BioAssay (NCI) for this set.
